Target: UniProt P21397
Sequence (P21397 whole entry): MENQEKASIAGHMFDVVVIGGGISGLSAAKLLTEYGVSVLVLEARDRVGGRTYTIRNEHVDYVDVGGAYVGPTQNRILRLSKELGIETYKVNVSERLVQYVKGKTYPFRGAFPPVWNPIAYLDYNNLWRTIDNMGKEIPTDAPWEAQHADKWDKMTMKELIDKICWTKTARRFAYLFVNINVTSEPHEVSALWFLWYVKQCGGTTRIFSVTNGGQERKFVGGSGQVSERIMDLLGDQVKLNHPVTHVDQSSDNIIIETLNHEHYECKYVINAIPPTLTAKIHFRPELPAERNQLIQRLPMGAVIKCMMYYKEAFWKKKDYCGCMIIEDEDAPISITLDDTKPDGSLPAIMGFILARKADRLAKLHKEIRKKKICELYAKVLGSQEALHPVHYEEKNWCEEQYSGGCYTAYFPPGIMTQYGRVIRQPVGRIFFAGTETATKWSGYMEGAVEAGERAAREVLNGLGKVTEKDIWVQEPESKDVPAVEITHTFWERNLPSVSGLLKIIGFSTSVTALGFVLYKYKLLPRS
Format: functional
MEASURE: AC50

INSERT INTO measurements (compound, measure, result) VALUES
  ('OC[C@H]1O[C@@H](n2cnc3c2NC=NC[C@H]3O)C[C@@H]1O [PENTOSTATIN]', 'AC50', '> 30 µM'),
  ('COc1cc(C(C)=O)ccc1OCCCN1CCC(c2noc3cc(F)ccc23)CC1 [ILOPERIDONE]', 'AC50', '> 30 µM'),
  ('Cn1cc(C(=O)[C@@H]2CCc3nc[nH]c3C2)c2ccccc21 [RAMOSETRON]', 'AC50', '> 30 µM'),
  ('O=C(NCCO[N+](=O)[O-])c1cccnc1 [NICORANDIL]', 'AC50', '> 30 µM'),
  ('CCC(=O)O[C@](Cc1ccccc1)(c1ccccc1)[C@H](C)CN(C)C [PROPOXYPHENE]', 'AC50', '> 10 µM'),
  ('CCC[C@@H]1C[C@@H](C(=O)N[C@@H]([C@H]2O[C@H](SC)[C@H](O)[C@@H](O)[C@H]2O)[C@@H](C)O)N(C)C1 [LINCOMYCIN]', 'AC50', '> 10 µM'),
  ('CCCCCCCN(CC)CCCC(O)c1ccc(NS(C)(=O)=O)cc1 (stereo not given) [IBUTILIDE]', 'AC50', '> 30 µM'),
  ('Cc1cc(C)nc(NS(=O)(=O)c2ccc(N)cc2)n1 [SULFAMETHAZINE]', 'AC50', '> 30 µM'),
  ('Cc1ccnc2c1NC(=O)c1cccnc1N2C1CC1 [NEVIRAPINE]', 'AC50', '> 10 µM'),
  ('Cc1cc(C2CCCCC2)n(O)c(=O)c1 [CICLOPIROX]', 'AC50', '> 30 µM');

====

Quick reference for AC50 among some molecules
Molecular target: Thromboxane A2 receptor (Homo sapiens); note: assay procedure not described here
Sequence (P21731 whole entry): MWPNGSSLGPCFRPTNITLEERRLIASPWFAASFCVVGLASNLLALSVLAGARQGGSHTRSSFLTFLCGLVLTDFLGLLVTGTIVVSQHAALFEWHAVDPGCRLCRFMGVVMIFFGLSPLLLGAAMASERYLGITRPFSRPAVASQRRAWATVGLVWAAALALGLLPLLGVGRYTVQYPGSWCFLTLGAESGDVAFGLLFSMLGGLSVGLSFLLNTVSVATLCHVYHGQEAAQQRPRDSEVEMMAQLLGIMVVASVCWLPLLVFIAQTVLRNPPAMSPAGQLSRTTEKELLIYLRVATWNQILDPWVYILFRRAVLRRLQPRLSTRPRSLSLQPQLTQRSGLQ
Format: functional, cell-based
MEASURE: AC50

INSERT INTO results (molecule, result) VALUES
  ('COc1ccccc1OC1(C)OC(=O)c2ccccc2O1 (centres undefined)', '> 30 µM'),
  ('Cc1ccc(C(=O)c2ccc(CC(=O)O)n2C)cc1', '> 30 µM'),
  ('CCCCC1C(=O)N(c2ccccc2)N(c2ccc(O)cc2)C1=O (centres undefined) [OXYPHENBUTAZONE ANHYDROUS]', '> 30 µM'),
  ('CC(OCCN1CCCCCC1)(c1ccccc1)c1ccc(Cl)cc1 (centres undefined)', '8.8 µM'),
  ('CC(=O)[C@]1(N)Cc2c(O)c3c(c(O)c2[C@@H](O[C@H]2C[C@H](O)[C@H](O)CO2)C1)C(=O)c1ccccc1C3=O', '> 1 µM'),
  ('COc1ccc2[nH]c([S+]([O-])Cc3ncc(C)c(OC)c3C)nc2c1 (centres undefined)', '> 30 µM'),
  ('COc1cccc(C(=O)CCN[C@@H](C)[C@H](O)c2ccccc2)c1', '> 30 µM'),
  ('N#Cc1ccc(Oc2ccc3c(c2)COB3O)cc1', '> 30 µM'),
  ('O=C(O)Cc1ccccc1Oc1ccc(Cl)cc1Cl', '> 30 µM');

====

Adenosine receptor A3 (Homo sapiens, UniProt P0DMS8) data, read-out AC50; note: assay procedure not described here
Sequence (P0DMS8 whole entry): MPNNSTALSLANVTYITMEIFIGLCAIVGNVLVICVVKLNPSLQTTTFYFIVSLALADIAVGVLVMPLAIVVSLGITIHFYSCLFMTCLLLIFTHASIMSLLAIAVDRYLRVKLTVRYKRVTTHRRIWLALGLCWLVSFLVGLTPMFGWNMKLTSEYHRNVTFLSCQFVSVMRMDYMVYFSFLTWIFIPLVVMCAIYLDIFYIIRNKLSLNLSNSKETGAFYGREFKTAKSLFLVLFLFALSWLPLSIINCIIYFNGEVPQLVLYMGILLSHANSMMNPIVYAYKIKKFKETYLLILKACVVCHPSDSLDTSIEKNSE
MEASURE: AC50

INSERT INTO assay_data (compound, result) VALUES
  ('C[C@H]1O[C@@H](O[C@H]2CC[C@@]3(C)[C@H](CC[C@@H]4[C@@H]3C[C@@H](O)[C@]3(C)[C@@H](C5=CC(=O)OC5)CC[C@]43O)C2)C[C@H](O)[C@@H]1O[C@H]1C[C@H](O)[C@H](O[C@H]2C[C@H](O)[C@H](O[C@@H]3O[C@H](CO)[C@@H](O)[C@H](O)[C@H]3O)[C@@H](C)O2)[C@@H](C)O1 [DESLANOSIDE]', '> 30 µM'),
  ('C=C1CC[C@H](O)C/C1=C/C=C1\CCC[C@]2(C)[C@@H]([C@H](C)CCCC(C)C)CC[C@@H]12', '14.8 µM'),
  ('O=C(O)CN(CCN(CC(=O)O)CC(=O)O)CCN(CC(=O)O)CC(=O)O', '> 30 µM'),
  ('CCCCc1oc2ccc(NS(C)(=O)=O)cc2c1C(=O)c1ccc(OCCCN(CCCC)CCCC)cc1', '1.54 µM'),
  ('C=C(C)CNc1ccc(C(C)C(=O)O)cc1 (configuration not stated)', '> 30 µM'),
  ('NC(=O)[C@@H]1CC[C@@H]2CN1C(=O)N2OS(=O)(=O)O', '> 30 µM'),
  ('O=C(O)P(=O)(O)O', '> 30 µM'),
  ('Nc1cccc2c1C(=O)N(C1CCC(=O)NC1=O)C2=O (configuration not stated) [POMALIDOMIDE]', '> 30 µM'),
  ('CC1(C)S[C@@H]2[C@H](/N=C/N3CCCCCC3)C(=O)N2[C@H]1C(=O)O', '> 30 µM'),
  ('NNCCc1ccccc1', '> 30 µM'),
  ('CC[C@]12CCCN3CCc4c(n(c5ccccc45)[C@@](O)(C(=O)OC)C1)[C@@H]32', '> 30 µM'),
  ('CC(=O)NO [ACETOHYDROXAMIC ACID]', '> 30 µM'),
  ('CC(=O)[C@]1(N)Cc2c(O)c3c(c(O)c2[C@@H](O[C@H]2C[C@H](O)[C@H](O)CO2)C1)C(=O)c1ccccc1C3=O', '> 30 µM'),
  ('N#Cc1ccc(Oc2ccc3c(c2)COB3O)cc1', '> 30 µM'),
  ('COC(=O)[C@@H](N)Cc1ccc(O)c(O)c1', '> 30 µM'),
  ('CN1CCCN(C(c2ccccc2)c2ccc(Cl)cc2)CC1 (configuration not stated)', '> 30 µM'),
  ('CCNC(=O)/C=C(C)/C=C/C=C(C)/C=C/c1c(C)cc(OC)c(C)c1C [MOTRETINIDE]', '2.24 µM'),
  ('C[Se]CC[C@H](N)C(=O)O', '> 30 µM'),
  ('C=N[C@@H](C(=O)N[C@@H]1C(=O)N2[C@@H]1SC(C)(C)[C@@H]2C(=O)O)c1ccccc1', '> 30 µM'),
  ('Cc1cc2c(cc1S(N)(=O)=O)S(=O)(=O)CCC2', '> 30 µM'),
  ('Cc1oc(=O)oc1COC(=O)[C@@H]1N2C(=O)[C@@H](NC(=O)[C@H](N)c3ccccc3)[C@H]2SC1(C)C', '> 30 µM'),
  ('C[N+](C)(C)CCOC(=O)CCC(=O)OCC[N+](C)(C)C', '> 30 µM'),
  ('C[C@H](CCC(=O)O)[C@H]1CC[C@H]2[C@@H]3[C@H](O)C[C@@H]4C[C@H](O)CC[C@]4(C)[C@H]3C[C@H](O)[C@]12C', '> 30 µM'),
  ('Cc1ccc(S(=O)(=O)NC(=O)NC2CCCCC2)cc1 [GLYCYCLAMIDE]', '12.7 µM'),
  ('N[C@@H](Cc1ccccc1)C(=O)O', '> 30 µM'),
  ('CCCCC1C(=O)N(c2ccccc2)N(c2ccc(O)cc2)C1=O (configuration not stated) [OXYPHENBUTAZONE ANHYDROUS]', '> 30 µM'),
  ('CC(=O)O[C@H]1Cc2ccccc2N(C(N)=O)c2ccccc21 [ESLICARBAZEPINE ACETATE]', '> 30 µM'),
  ('Cc1ccsc1C(=CCCN1CCC[C@@H](C(=O)O)C1)c1sccc1C', '> 30 µM'),
  ('Cc1cc(=O)[nH]c(=S)[nH]1', '> 30 µM'),
  ('Cc1cc(C2CCCCC2)n(O)c(=O)c1', '> 30 µM'),
  ('N=C(N)N/N=C/c1c(Cl)cccc1Cl', '> 30 µM'),
  ('O=C(O)Cc1ccccc1Nc1c(Cl)cccc1Cl', '> 3 µM');
